src = the supplement of paper PMC10567573

B1: CDKN1A (parent)
chain: GRKRRQTSMTDFYHSKRRLIFSKR

# Variants of: B1
# ASSAY_EXPLANATION: protein stability index of a GFP-peptide fusion (GPS, HEK-293T) (PSI 1-6); higher = more stable;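 also: lentivirally expressed fusions sorted by FACS into six bins by GFP to DsRed ratio, PSI derived from sequencing read proportions per bin multiplied by bin number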
# MEASUREMENT_PARAMETERS: c terminus: a fixed tail appended
Each item that follows carries a reported protein stability index.
Write the number on its own, no unit after it.

>  <MUTATION_SPEC>
R5N

>  <protein stability index>
2.74

$$$$
>  <MUTATION_SPEC>
S15M

>  <protein stability index>
1.92

$$$$

Query: Record request: protein stability index value, item I20F
Result: 3.1

Query: Record request: protein stability index value, item R5K
Result: 2.57

Query: Record request: protein stability index value, item F12G
Result: 3.04
